tested on: TO-N3 (biotin conjugate); assay: pull-down binding Z-score (relative to library population); higher = stronger binding; conditions: RNA library: Library-2
Grouping key: pull-down binding Z-score. Bins: low = under -0.2, middle = from -0.2 up to 0.09, high = 0.09 and over

Take a look at these entries with their results.
RESIDUE_CODES	CLASS
GGUGGGCCUCUGCUCUGGCCCCUCC [hsa-mir-1343]	middle
GUGCCUGGAAUAUUGGUGAACAGAAAUCAAUACUGAGUCCUCUUUAUGCAUUUGCAUCAGAGGCUGCUCGUGUUGUACGAUCAAUUUUCUCCCGCAC [SHAPE_invivo_SARS-CoV-2_Motif_37]	middle
UAGUUUUAAGGAAUUA	low
GCGCUGCCAGAAACUGGCUGCGC [mismatch-UU]	low
GGCUGGGGUCACUGACUCUGCUUCCCCUGCC [hsa-mir-6799]	middle
AAGCUGAUGAGUACGAACUUAUGUACUCAUUCGUUU	low
GAGACUUAGAAAUCCCUAAGUCUC [hsa-mir-3921]	low
CGGCGGGCACGUAGUGUAGCUAGUCAAUCCAUCAUUGCCUACACUAUGUCACUUGGUG [SHAPE_invitro_SARS-CoV-2_Motif_429]	high
GAUUCUUGAGGCUUGGAAGAGUAAGGAUC [hsa-mir-6866]	high
UUCGCAUUAUUUAAUGAUGCCCA [hsa-mir-323b]	low

stdin: For this sequence, which bin applies? CCGGUAAGGACGAUACUUACCUG [U1snRNP5ss-23]
stdout: high

stdin: State the band of CUUAGUAGGUGAUAGCAUGACUGAC [hsa-mir-5002]
stdout: high

stdin: Exam item: assign GAGACACCCGCUACCUGGUGUU [hsa-mir-4321] to the correct category.
stdout: middle

stdin: Just checking, what class would you give AAGCCCUACGAGAAACUGGGGUUUCUGGA [hsa-mir-765] here?
stdout: high

stdin: Lab log: ACCACCCAGGCCUUAUGGCUUCAUA [hsa-mir-7974] — assign pull-down binding Z-score category
stdout: high

stdin: # bin label for GCGUCGCUUCUCCCUAAUGUUGCC [hsa-mir-6781]
stdout: middle

stdin: Sort AGGUAGUGUGAUUACCCAACCUACU [hsa-mir-93] into one of the categories.
stdout: middle

* * *

tested on: TO-3-N3 (biotin conjugate); assay: pull-down binding Z-score (relative to library population); higher = stronger binding; settings: RNA library: Library-2
READOUT: pull-down binding Z-score

Example results:
RESIDUE_CODES	pull-down binding Z-score
CCCCACUACAAUUGGGG [IAV_invivo_HA_4_Motif_4+IAV_invivo_HA_4_Motif_4]	0.245
CCUGUCCUAUGACAAACAUGGCAGG [hsa-mir-3927]	-0.564
CCAUUUGCUAUGCAAAUGG	-0.562
CCUAGAGUCCAUUCUUUACUCUAGG [hsa-mir-4779]	-0.699
GCACACUAGAACCAGAAUAUUUCAAUUCAGUGUGU	-0.957

stdin: Reported pull-down binding Z-score for GCUGGGGCGCGGGCUUUCGCUUUCAGUCGAGGGCUAGCGAGCGCAGC [hsa-mir-7846] : what is it?
stdout: 0.914

stdin: Endpoint output: pull-down binding Z-score of CUCAUGUAAACUAAAACAUGAU [hsa-mir-508] . Value?
stdout: 0.0647

stdin: Look up pull-down binding Z-score for this sequence: CUGCUGAAUCUUCAGAAAGG [hsa-mir-3142]
stdout: -0.432

stdin: Fill blank: measured pull-down binding Z-score of the sequence UGAUGCGUAUUAUGACAUGGUUGGAUAUGGUUGAUACUAGUUUGUCUGGUUUUAAGCUAAAAGACUGUGUUAUGUAUGCAUCA is ____.
stdout: -0.867

stdin: Need pull-down binding Z-score of GUUUGCAAGGGGUGUUUCUGUCCAUGGUCAGGC [hsa-mir-4283-1_4283-2] , thanks.
stdout: 0.578

stdin: Entry UAGUGCAAAGAAUAGAGCUCGCACCGUAGCUGGUGUCUCUAUCUGUAGUACUA : reported pull-down binding Z-score = ?
stdout: -0.167

stdin: Which pull-down binding Z-score reading was recorded for the sequence CAGAGAUGAAAUUGGGACUCCUCU [hsa-mir-7157] ?
stdout: 0.189

stdin: I am curious: what pull-down binding Z-score value has been reported for GAGCUCAGGAGCUC [hsa-mir-8052] ?
stdout: -0.634

stdin: # pull-down binding Z-score lookup, item CUCAUGAUAUGUUUGCCCCAUCAGCGUGUCACGAG [hsa-mir-3616]
stdout: -0.104

stdin: Given GGUUUCCUUCGGGGCAGGUGGGGACUGCUCCUUUGGGAGGAAGGAGGAGGCC [hsa-mir-4453] , state its recorded pull-down binding Z-score.
stdout: 2.21

stdin: Please report the recorded pull-down binding Z-score for CACUGAUUCAGUAAAAUACUCAGUG [hsa-mir-891a] .
stdout: -0.707

stdin: Dear colleague, I am looking for the recorded pull-down binding Z-score of the following sequence: UCGGCACUAUUGUGACUGU [hsa-mir-7855]
stdout: 0.693

stdin: Returns the measured pull-down binding Z-score for the input sequence. Input: UCAUCAGGAGAUGCCACAACUGCUUAUGCUAAUAGUGUUUUUAACAUUUGUCAAGCUGUCACGGCCAAUGUUAAUGCACUUUUAUCUACUGAUGG [DMSMaPseq_invitro_SARS-CoV-2_Multi_45_ComplexLevel_1]
stdout: -0.641

stdin: What measured pull-down binding Z-score goes with CCUUCUCCUCUUUGCAGUGAUAAAGGAGG [hsa-mir-4460] ?
stdout: -0.304

stdin: Endpoint output: pull-down binding Z-score of UCCCCAGAAGCUGAGGAUUAGGGGA [hsa-mir-6503] . Value?
stdout: 0.0937

stdin: I have this sequence here, CCAUGUGAGUGAAGCCUGAUCAUCAUGUG [hsa-mir-8070] , and I need its recorded pull-down binding Z-score.
stdout: -0.67

stdin: Sample CUUUCUGUUGUCUGAGAGAAAAGAAAG [hsa-mir-520a] — what was its pull-down binding Z-score?
stdout: -0.684
